tested on: Staphylococcus aureus; test: Antibacterial activity against methicillin-resistant Staphylococcus aureus CCARM 3167 clinical isolate after 24 hrs by broth microdilution method; assay type: functional; conditions: CCARM 3167, 24 h
Listed below: MIC values for each entry.

Give MIC for "O=C(O)[C@H](Cc1ccccc1)N1C(=O)/C(=C\c2ccc(OCc3ccc(Cl)cc3Cl)cc2)SC1=S"
8 µg/mL

Please report MIC for the following molecule: "O=C(/C=C/c1ccc(/C=C2\SC(=S)N([C@@H](Cc3ccccc3)C(=O)O)C2=O)cc1)c1ccc(Cl)cc1Cl"
4 µg/mL

Specify measured MIC for "O=C(/C=C/c1ccc(/C=C2\SC(=S)N([C@@H](Cc3ccccc3)C(=O)O)C2=O)cc1)c1ccccc1Cl" .
2 µg/mL

Give MIC for "COc1cccc(C(=O)/C=C/c2ccc(C=O)cc2)c1"
> 64 µg/mL

Find the measured MIC of "COc1ccccc1C(=O)/C=C/c1ccc(C=O)cc1" and report it.
> 64 µg/mL

----------
tested on: Staphylococcus aureus; assay: Ratio of norfloxacin MIC to compound MIC for methicillin-resistant Staphylococcus aureus CCARM 3506 clinical isolate; format: functional
PROPERTY: Ratio
Lab note: record the figure alone, no unit after it.

Illustrative cases are given below, each with its answer.
Report value: Ratio, system: Staphylococcus aureus, molecule: "COc1cccc(C(=O)/C=C/c2ccc(/C=C3\SC(=S)N([C@@H](Cc4ccccc4)C(=O)O)C3=O)cc2)c1"
2

Quote Staphylococcus aureus Ratio for entry "O=C(/C=C/c1ccc(/C=C2\SC(=S)N([C@@H](Cc3ccccc3)C(=O)O)C2=O)cc1)c1cccc(Cl)c1" .
2

From here, focus on the item given below.
Report value: Ratio, system: Staphylococcus aureus, molecule: "O=C(/C=C/c1ccc(/C=C2\SC(=S)N([C@@H](Cc3ccccc3)C(=O)O)C2=O)cc1)c1ccc(F)cc1"
2

----------
Below, each entry is listed alongside its reported MIC.
tested on: Staphylococcus aureus; assay: Antibacterial activity against methicillin-resistant Staphylococcus aureus CCARM 3167 clinical isolate after 24 hrs by broth microdilution method; type: functional; settings: CCARM 3167, 24 h
Number in µg/mL, nothing else.

For orientation, consider the following solved cases.
Using Staphylococcus aureus as the test system, report measured MIC of "O=C(O)[C@H](Cc1ccccc1)N1C(=O)/C(=C\c2ccc(OCc3ccc(Br)cc3)cc2)SC1=S" .
4

Find MIC for "O=C(O)[C@H](Cc1ccccc1)N1C(=O)/C(=C\c2ccc(OCc3ccccc3)cc2)SC1=S" on Staphylococcus aureus and write it down.
4

Give Staphylococcus aureus MIC for the following compound: "Cc1ccc(C(=O)/C=C/c2ccc(/C=C3\SC(=S)N([C@@H](Cc4ccccc4)C(=O)O)C3=O)cc2)c(C)c1"
4

Fill: MIC (Staphylococcus aureus) for this compound "O=C(/C=C/c1ccc(/C=C2\SC(=S)N([C@@H](Cc3ccccc3)C(=O)O)C2=O)cc1)c1ccccc1"
4

***
Report MIC under test system Staphylococcus aureus for "O=C(/C=C/c1ccc(/C=C2\SC(=S)N([C@@H](Cc3ccccc3)C(=O)O)C2=O)cc1)c1ccc2ccccc2c1" .
2

----------
tested on: Staphylococcus aureus; assay: Antibacterial activity against quinolone-resistant Staphylococcus aureus CCARM 3519 clinical isolate after 24 hrs by broth microdilution method; type: functional; conditions: CCARM 3519, 24 h
PROPERTY: log10(MIC) (log10 of the value in µg/mL)
Units before log transform: µg/mL; reported quantity: MIC; transform: log10.

Give the measured log10(MIC) for "COc1cccc(C(=O)/C=C/c2ccc(/C=C3\SC(=S)N([C@@H](Cc4ccccc4)C(=O)O)C3=O)cc2)c1"
0.90

----------
Entries and their MIC
system: Staphylococcus aureus; experiment: Antibacterial activity against methicillin-resistant Staphylococcus aureus CCARM 3167 clinical isolate after 24 hrs by broth microdilution method; type: functional; conditions: CCARM 3167, 24 h
Please state the figure in µg/mL; there is no need to write the unit.

Give me measured MIC, please, for this compound: "O=C(/C=C/c1ccc(/C=C2\SC(=S)N([C@@H](Cc3ccccc3)C(=O)O)C2=O)cc1)c1ccc(F)cc1"
4

Please report MIC for the following compound: "CCn1cc(C(=O)O)c(=O)c2cc(F)c(N3CCNCC3)cc21"
8

For the compound "COc1ccccc1C(=O)/C=C/c1ccc(/C=C2\SC(=S)N([C@@H](Cc3ccccc3)C(=O)O)C2=O)cc1" , give its reported MIC.
8

Give a short answer stating reported MIC for "O=C(/C=C/c1ccc(/C=C2\SC(=S)N([C@@H](Cc3ccccc3)C(=O)O)C2=O)cc1)c1cccc(Br)c1" .
8

----------
tested on: Staphylococcus aureus; assay: Antibacterial activity against quinolone-resistant Staphylococcus aureus CCARM 3519 clinical isolate after 24 hrs by broth microdilution method; format: functional; details: CCARM 3519, 24 h
Below, each of the compounds is paired with its reported MIC value.
The reply should be a number in µg/mL, with the unit left off.

Consider the compound "Cc1ccc(C(=O)/C=C/c2ccc(/C=C3\SC(=S)N([C@@H](Cc4ccccc4)C(=O)O)C3=O)cc2)cc1" and give its recorded MIC.
2

Give recorded MIC. "O=C(/C=C/c1ccc(/C=C2\SC(=S)N([C@@H](Cc3ccccc3)C(=O)O)C2=O)cc1)c1ccc2ccccc2c1"
2

Let me know recorded MIC for "CC(=O)Nc1ccc(C(=O)/C=C/c2ccc(/C=C3\SC(=S)N([C@@H](Cc4ccccc4)C(=O)O)C3=O)cc2)cc1" , thanks.
4

Give the reported MIC for this compound. "O=C(O)[C@H](Cc1ccccc1)N1C(=O)/C(=C\c2ccc(OCc3ccc(Br)cc3)cc2)SC1=S"
8

Specify reported MIC for the compound shown: "Cc1ccc(COc2ccc(/C=C3\SC(=S)N([C@@H](Cc4ccccc4)C(=O)O)C3=O)cc2)cc1"
8

New cases:
Consider the compound "O=C(O)[C@H](Cc1ccccc1)N1C(=O)/C(=C\c2ccc(OCc3ccc(Cl)cc3Cl)cc2)SC1=S" and give its recorded MIC.
8

Find the measured MIC of "O=C(O)[C@H](Cc1ccccc1)N1C(=O)/C(=C\c2ccc(OCc3cccc(F)c3)cc2)SC1=S" and report it.
8

Return the recorded MIC value; entry: "O=C(/C=C/c1ccc(/C=C2\SC(=S)N([C@@H](Cc3ccccc3)C(=O)O)C2=O)cc1)c1cccc(Br)c1"
16

Look up and state reported MIC for "O=C(/C=C/c1ccc(/C=C2\SC(=S)N([C@@H](Cc3ccccc3)C(=O)O)C2=O)cc1)c1ccccc1Br"
4

----------
Let's look at some compounds and their measured MIC.
system: Staphylococcus aureus; assay: Antibacterial activity against quinolone-resistant Staphylococcus aureus CCARM 3519 clinical isolate after 24 hrs by broth microdilution method; type: functional; details: CCARM 3519, 24 h

Example entries begin here.
// output MIC; input "O=C(/C=C/c1ccc(/C=C2\SC(=S)N([C@@H](Cc3ccccc3)C(=O)O)C2=O)cc1)c1ccccc1Cl" ; system Staphylococcus aureus
4 µg/mL

Consider the compound "O=Cc1ccc(/C=C/C(=O)c2ccc(F)cc2)cc1" tested on Staphylococcus aureus; state its MIC.
> 64 µg/mL

Write down measured MIC (Staphylococcus aureus) for this compound. "O=C1NC(=S)NC(=O)C1=Cc1ccc(/C=C/C(=O)c2cccc(Cl)c2)cc1"
> 64 µg/mL

Tell me its MIC on Staphylococcus aureus: "COc1ccccc1C(=O)/C=C/c1ccc(/C=C2\SC(=S)N([C@@H](Cc3ccccc3)C(=O)O)C2=O)cc1"
16 µg/mL

Further cases:
Provide MIC, system Staphylococcus aureus, entry "O=Cc1ccc(/C=C/C(=O)c2ccccc2Br)cc1"
> 64 µg/mL

Jot down MIC (Staphylococcus aureus) of "O=C1NC(=S)S/C1=C/c1ccc(/C=C/C(=O)c2ccc(Cl)cc2)cc1" .
> 64 µg/mL

Using Staphylococcus aureus as the test system, report measured MIC of "O=C1NC(=S)NC(=O)C1=Cc1ccc(/C=C/C(=O)c2ccccc2F)cc1" .
> 64 µg/mL

Fill: MIC (Staphylococcus aureus) for this compound "O=Cc1ccc(/C=C/C(=O)c2ccc(Br)cc2)cc1"
> 64 µg/mL

Fetch value of MIC on Staphylococcus aureus for "CC(=O)Nc1ccc(C(=O)/C=C/c2ccc(C=O)cc2)cc1" .
> 64 µg/mL

Specify the recorded MIC for "O=C1NC(=S)NC(=O)C1=Cc1ccc(/C=C/C(=O)c2ccc(F)cc2)cc1" , system: Staphylococcus aureus.
> 64 µg/mL

----------
# key: entry, value: MIC
test system: Staphylococcus aureus; assay: Antibacterial activity against methicillin-resistant Staphylococcus aureus CCARM 3167 clinical isolate after 24 hrs by broth microdilution method; type: functional; conditions: CCARM 3167, 24 h

Output measured MIC for this item: "O=Cc1ccc(/C=C/C(=O)c2cccc(Cl)c2)cc1"
> 64 µg/mL

With those in mind, consider the next molecule.
Tell me its MIC given "O=C(O)[C@H](Cc1ccccc1)N1C(=O)/C(=C\c2ccc(OCc3ccc(Cl)cc3)cc2)SC1=S" as the entry.
4 µg/mL
